system tested: T1, glucose-dependent insulinotropic peptide (gastric inhibitory polypeptide) receptor (GIPR), primary cAMP assay … (human, UniProt P48546 22-466)
T1 sequence (looked up): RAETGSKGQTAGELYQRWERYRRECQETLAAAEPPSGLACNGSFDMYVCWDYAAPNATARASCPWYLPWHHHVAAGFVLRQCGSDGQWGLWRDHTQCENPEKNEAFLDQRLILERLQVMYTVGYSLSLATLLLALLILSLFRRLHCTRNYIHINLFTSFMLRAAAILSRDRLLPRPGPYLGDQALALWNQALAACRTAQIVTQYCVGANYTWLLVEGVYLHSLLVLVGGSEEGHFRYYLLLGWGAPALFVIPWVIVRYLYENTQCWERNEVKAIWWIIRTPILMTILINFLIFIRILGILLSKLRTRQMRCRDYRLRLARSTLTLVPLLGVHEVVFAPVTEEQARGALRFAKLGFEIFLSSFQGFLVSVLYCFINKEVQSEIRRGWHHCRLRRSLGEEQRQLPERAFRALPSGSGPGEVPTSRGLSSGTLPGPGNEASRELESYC
assay protocol: cell-based or functional assay
Starred links: 1 amine or outer side, 2 acyl side, 3 side chain; linkers in the order of their positions; H or OH if unused. Non-standard residues stand in square brackets, D forms with d. Groups on a side chain read outwards from the residue. Primed or numbered codes have the meaning given here. No end group written: not given here. *: point of attachment. γGlu = O=C(O)[C@H](CCC(=O)[*:2])N[*:1]; αMeF = C[C@](N)(Cc1ccccc1)C(=O)O; αMeK = C[C@](N)(CCCCN)C(=O)O; Lauroyl = CCCCCCCCCCCC(=O)*; αMeS = C[C@](N)(CO)C(=O)O; PEG2′ = not defined here; Aib = CC(C)(N)C(=O)O
readout name: cAMP Primary assay EC50, n2 (nM)

1) H[Aib]EGS[αMeF]TSDV[αMeS]SK([PEG2′-PEG2′-γGlu-Lauroyl])LEGK([PEG2′-PEG2′-γGlu-Lauroyl])AA[αMeK]EFIAFK([PEG2′-PEG2′-γGlu-Lauroyl])VEGG-NH2 [SEQ ID NO: 480]; 20
2) H[Aib]EGS[αMeF]TSDVSK([PEG2′-PEG2′-γGlu-Lauroyl])YLEGEK([PEG2′-PEG2′-γGlu-Lauroyl])A[αMeK]EFIAK([PEG2′-PEG2′-γGlu-Lauroyl])VVEGG-NH2 [SEQ ID NO: 461]; 19.8

The measurements presented in this section are drawn from patent US20200079833A1.
